Record form. Attribute: koff. Fill in for each entry.
# ASSAYED_SYSTEM: T1, cynomolgus monkey BCMA (cynomolgus monkey, UniProt A0A2K5UD97 1-53)
# T1 construct: Soluble analyte in SPR; construct not described; also called cyBCMA; Cyno BCMA
# T1 sequence (A0A2K5UD97 entry or part of it): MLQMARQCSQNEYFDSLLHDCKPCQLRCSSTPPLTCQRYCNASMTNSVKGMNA
# EXPERIMENTAL_PROTOCOL: SPR, IgG immobilised, 25 C
Give your result in s⁻¹ as a bare value.

Problem: Request the reported koff associated with L1.LGF/L3.NY/H3.AL (antibody, V domains shown, IgG) VH: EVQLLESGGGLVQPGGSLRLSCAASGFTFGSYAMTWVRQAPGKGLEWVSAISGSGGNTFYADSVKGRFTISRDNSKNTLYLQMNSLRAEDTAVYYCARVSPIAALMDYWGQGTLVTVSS VL: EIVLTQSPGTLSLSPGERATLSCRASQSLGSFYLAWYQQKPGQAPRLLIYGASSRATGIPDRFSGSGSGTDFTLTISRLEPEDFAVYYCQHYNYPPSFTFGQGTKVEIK
Result: 0.0148

Problem: # lookup: koff of L1.GDF/L3.NY/H3.AQ (antibody, V domains shown, IgG) VH: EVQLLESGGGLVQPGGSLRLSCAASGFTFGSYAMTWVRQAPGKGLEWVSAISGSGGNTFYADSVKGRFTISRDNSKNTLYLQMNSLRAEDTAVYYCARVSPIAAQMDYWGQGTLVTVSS VL: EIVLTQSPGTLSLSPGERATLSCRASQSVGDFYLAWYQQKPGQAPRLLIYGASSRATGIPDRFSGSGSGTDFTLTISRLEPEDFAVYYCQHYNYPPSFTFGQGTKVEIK
Result: 0.00136

Problem: Recorded koff of L1.LGF/L3.NY/H3.AQ (antibody, V domains shown, IgG) VH: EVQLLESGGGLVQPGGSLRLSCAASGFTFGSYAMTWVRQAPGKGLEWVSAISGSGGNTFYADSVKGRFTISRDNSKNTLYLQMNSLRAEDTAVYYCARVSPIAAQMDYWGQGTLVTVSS VL: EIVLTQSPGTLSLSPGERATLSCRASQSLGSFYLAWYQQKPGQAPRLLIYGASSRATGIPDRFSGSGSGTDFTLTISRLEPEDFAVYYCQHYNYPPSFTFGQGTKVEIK , please.
Result: 0.00148

Problem: Request the reported koff associated with L1.GDF/L3.KW/H3.AP (antibody, V domains shown, IgG) VH: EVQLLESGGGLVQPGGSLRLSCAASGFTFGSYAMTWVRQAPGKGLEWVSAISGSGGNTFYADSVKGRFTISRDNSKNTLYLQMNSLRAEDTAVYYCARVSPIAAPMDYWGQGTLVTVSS VL: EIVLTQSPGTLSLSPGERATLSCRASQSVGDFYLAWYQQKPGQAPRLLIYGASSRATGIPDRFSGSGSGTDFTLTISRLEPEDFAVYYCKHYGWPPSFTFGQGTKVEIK
Result: 0.0203

Problem: What koff value was documented for this binder, L1.LGF/L3.PY/H3.AP (antibody, V domains shown, IgG) VH: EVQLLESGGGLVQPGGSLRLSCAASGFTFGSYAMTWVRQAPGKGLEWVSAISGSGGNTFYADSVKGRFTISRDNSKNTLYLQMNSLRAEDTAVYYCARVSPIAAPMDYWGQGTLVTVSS VL: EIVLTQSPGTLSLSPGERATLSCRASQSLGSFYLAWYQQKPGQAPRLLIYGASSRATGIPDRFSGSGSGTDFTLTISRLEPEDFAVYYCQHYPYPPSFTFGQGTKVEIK ?
Result: 0.013
